Values from PubChem BioAssay (Tox21)

assay.comment: qHTS assay to identify small molecule antagonists of the sonic hedgehog signaling (Shh) pathway - cell viability counter screen (AID 1259367); further: on the % scale 0 is the no-effect control and ±100 the full control effect; nearly all actives have a fitted effect of over 55% in size
test.context: NIH/3T3 Gli1-Luc viability, CellTiter-Fluor, 24 h; series mostly up to 92.4 µM
Records with an inconclusive call do not appear. Active and inactive are the calls of the source. The call rests on the fitted dose curve; in most records, active means well fitted cell-killing curve with a large enough effect in the repeat runs; inconclusive means weak or mixed curves, or effect the other way; inactive means no such curve, though single readings can be large or run the other way.
measurement.type: outcome

Observe how each entry below is paired with its result.
compound | outcome
Clc1ccccc1-c1nc(-c2ccncc2)no1 | inactive
O=C(OCCOCCOCCOC(=O)c1ccccc1)c1ccccc1 | inactive
CCCCCCCCCC(C)C=O (configuration not stated) | inactive
O=C1c2ccccc2C(=O)c2c1ccc(O)c2O | inactive
O=C(O)CCc1nc2ccccc2[nH]1 | inactive

Query string: Quick check: outcome of COC(=O)c1cc(Cl)ccc1[N+](=O)[O-] ?
Result string: inactive

Query string: Find the recorded outcome belonging to C=CC(C)(O)CC/C=C(/C)CCC=C(C)C (configuration not stated) and report it.
Result string: inactive

---

assay.comment: qHTS RealTime-Glo MT Cell Viability Assay in HEK293 cells - 40 hour (AID 1224874); further: on the % scale 0 is the no-effect control and ±100 the full control effect; nearly all actives have a fitted effect of over 50% in size
test.context: RealTime-Glo luminescence; active compounds read low
Inconclusive results are not listed.
measurement.type: max response (%)
# output: bare number, implied unit %

Query string: Fill in the blank: the reported max response of CC(C)(C)c1cc(C=O)cc(C(C)(C)C)c1O is ____.
Result string: -0.177

Query string: Any idea what its max response is? The molecule is Cc1nc(C)c(C)nc1C
Result string: -5.51

Query string: Suppose we examine the molecule CCCCCCCCCC(C)C=O (centres undefined) ; what max response value has been reported?
Result string: 12

Query string: Which max response reading was recorded for the molecule O=C(Nc1ccccc1)c1cc([N+](=O)[O-])ccc1Cl ?
Result string: -23.2

Query string: Any idea what its max response is? The molecule is O=C1C=CCCC1
Result string: -0.315

Query string: Using the record for CC1(C)[C@@H]2CC[C@]3(C2)[C@@H]1C(=O)CCC3(C)C , report its max response.
Result string: 3.71

Query string: Would you kindly share the measured max response for CCC[Si](OC)(OC)OC ?
Result string: -8.66

Query string: Could you share which max response value was measured for CC(C)=CCC[C@H](C)CCO ?
Result string: -1.49

Query string: Give its max response value. Item: CCCC1CCCC(=O)O1 (centres undefined)
Result string: 0.877

Query string: Please report the recorded max response for O=C(Cl)c1ccc(F)c(Cl)c1 .
Result string: 35.2

Query string: Would you kindly share the measured max response for CCOc1ccc(NC(C)=O)cc1N ?
Result string: 3.81

Query string: Requested read-out: max response. Entry: O=C(O)c1cccnc1Nc1cccc(C(F)(F)F)c1
Result string: -4.24

Query string: Value lookup for max response; key = COc1ccc(CN(CCN(C)C)c2ncccn2)cc1
Result string: 4.01

Query string: max response for C/C=C1\[C@H]2C=C(C)C[C@]1(N)c1ccc(=O)[nH]c1C2 ?
Result string: -2.81

---

tested.on: Cytochrome P450 2D6 (Homo sapiens) (UniProt P10635)
Sequence (P10635 whole entry, looked up): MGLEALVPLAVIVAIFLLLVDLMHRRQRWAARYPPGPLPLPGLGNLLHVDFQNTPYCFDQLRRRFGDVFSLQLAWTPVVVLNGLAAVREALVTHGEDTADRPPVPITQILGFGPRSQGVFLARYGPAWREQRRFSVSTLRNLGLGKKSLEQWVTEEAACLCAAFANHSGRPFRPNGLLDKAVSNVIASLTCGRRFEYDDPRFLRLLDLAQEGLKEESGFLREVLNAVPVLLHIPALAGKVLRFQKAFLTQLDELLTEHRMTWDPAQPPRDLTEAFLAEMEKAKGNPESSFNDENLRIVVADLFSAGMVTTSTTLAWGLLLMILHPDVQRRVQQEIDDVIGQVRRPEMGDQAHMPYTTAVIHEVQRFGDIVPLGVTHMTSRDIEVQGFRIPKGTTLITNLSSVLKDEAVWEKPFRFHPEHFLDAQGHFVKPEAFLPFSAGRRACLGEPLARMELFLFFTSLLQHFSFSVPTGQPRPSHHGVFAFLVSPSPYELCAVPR
assay.comment: Cytochrome P450 Family 2 Subfamily D Member 6 (CYP2D6) small molecule antagonists: luciferase reporter qHTS assay (AID 1671196); further: nearly all actives have a fitted effect of over 50% in size
test.context: P450-Glo CYP2D6 enzyme assay, luciferin luminescence, 1 h; series mostly up to 115 µM
Excerpt: U.S. Tox21 Program National Center for Advancing Translational Sciences [NCATS] U.S. Environmental Protection Agency [EPA] National Institutes of Environmental Health Sciences [NIEHS] National Toxicology Program [NTP] U.S. Food and Drug Administration [FDA] […] The luciferin products formed are detected with a luciferin detection reagent, and the amount of light produced is proportional to CYP activity. […]
Records with an inconclusive call do not appear. Active and inactive are the calls of the source. The call rests on the fitted dose curve; in most records, active means well fitted inhibition curve with a large enough effect in the repeat runs; inconclusive means weak or mixed curves; inactive means no such curve, though single readings can be large or run the other way.
Output constraint: value belongs to active, inactive

Query string: For CCOC(=O)CC(O)(CC(=O)OCC)C(=O)OCC , which call appears in the assay record?
Result string: inactive

Query string: Kindly provide the recorded test outcome for the following compound: O=C(O)c1cc(C(=O)O)cc([N+](=O)[O-])c1
Result string: inactive

Query string: Which outcome was assigned to CCCCCCCCCCCC(=O)OCC in this test?
Result string: inactive

Query string: Dear colleague, could you share the recorded outcome for CCc1cnc(C(=O)O)c(C(=O)O)c1 when you have a moment?
Result string: inactive

Query string: Returns: the outcome recorded for CCOc1ccccc1O in this assay.
Result string: inactive

Query string: # outcome recorded in this test, key = O=C(O)c1cc(C(=O)O)c(C(=O)O)cc1C(=O)O
Result string: inactive

Query string: What call does the record list for N#C[C@@H]1CC(F)(F)CN1C(=O)CNC1CC2CCC(C1)N2c1ncccn1 (some centres undefined) ?
Result string: active

Query string: What did this assay record as the result for Clc1cc(Cl)c2c(c1)N=C1CCCCCN1C2 ?
Result string: active

Query string: Short answer needed: outcome of this test for CCCc1ccc(OC)cc1 ?
Result string: inactive

Query string: Status in this test for Cc1ccc2c(Cl)cc(Cl)c(O)c2n1 ?
Result string: inactive

Query string: What call does the record list for COc1ccc(/C=C/S(=O)(=O)NC(=O)c2ccc(C)cc2Cl)cc1 ?
Result string: inactive

Query string: Tell me the assay call for CCCCCCOC(=O)c1ccccc1 please.
Result string: inactive

Query string: What call does the record list for CCCCCCCCCCCCSCCOCCO ?
Result string: inactive

Query string: What is the recorded call for this compound in the test? C=CC(C)CCC=C(C)C (centres undefined)
Result string: inactive

---

assay.comment: qHTS assay to identify small molecule antagonists of the estrogen receptor alpha (ER-alpha) signaling pathway using the BG1 cell line in the presence of 0.1 nM 17-beta-estradiol - cell viability counter screen (AID 1259241); further: on the % scale 0 is the no-effect control and ±100 the full control effect; nearly all actives have a fitted effect of over 40% in size
test.context: VM7Luc4E2 (BG1) viability, CellTiter-Fluor protease, 22 h, 0.1 nM estradiol agonist added; series mostly up to 92.4 µM
Records with an inconclusive call do not appear. Activity calls are given as the source filed them. Calls come from the whole dose curve; as a rule, active = well fitted cell-killing curve with a large enough effect in the repeat runs; inconclusive = weak or mixed curves, or effect the other way; inactive = flat fitted curve, though single readings scatter.
measurement.type: activity change, negative = cytotoxicity

# annotated cases, reported activity change, negative = cytotoxicity shown
compound | measurement.type | reading
N#CCCCC(C#N)CCC#N (stereo not drawn) | activity change, negative = cytotoxicity | inactive
O=[N+]([O-])c1ccc(Cl)cc1Cl | activity change, negative = cytotoxicity | inactive
Cc1cc(SC2=C(O)C[C@@](CCc3ccc(N)cc3)(C(C)C)OC2=O)c(C(C)(C)C)cc1CO | activity change, negative = cytotoxicity | inactive
Clc1cc(Cl)c2c(c1)N=C1CCCCCN1C2 | activity change, negative = cytotoxicity | inactive
CC1=CC(=C(c2ccc(N)cc2)c2ccc(N)cc2)C=CC1=N | activity change, negative = cytotoxicity | -17.9% [at 8.39 µM] (inactive)

Query string: What does the data say about its activity change, negative = cytotoxicity? Entry: O=C(O)COCC(=O)O
Result string: inactive

Query string: Look at this compound and give its reported activity change, negative = cytotoxicity. Nc1ccc(F)cc1F
Result string: inactive

Query string: Entry COc1cccc([C@H](O)C2CCN(CCc3ccc(F)cc3)CC2)c1OC has what activity change, negative = cytotoxicity?
Result string: inactive

Query string: What does the data say about its activity change, negative = cytotoxicity? Entry: CCCCCC1CCC(=O)O1 (stereo not drawn)
Result string: inactive

Query string: Return reported activity change, negative = cytotoxicity; argument: C(/C=C/C=C/Nc1ccccc1)=Nc1ccccc1
Result string: inactive

Query string: Which measured activity change, negative = cytotoxicity value corresponds to O=C(O)c1ccccc1-n1cc(C(=O)O)c(=O)c2cc(Nc3c(F)cc(F)cc3Cl)c(Cl)cc21 ?
Result string: inactive

Query string: Using the record for c1ccc(-c2ccc(-c3ccccc3)cc2)cc1 , report its activity change, negative = cytotoxicity.
Result string: 0.519% [at 19 µM] (inactive)

Query string: Could you share which activity change, negative = cytotoxicity value was measured for Cc1ccc(S(=O)(=O)NC(=O)NC2CCCC2)cc1 ?
Result string: inactive

---

tested.on: Cytochrome P450 2C19 (Homo sapiens) (UniProt P33261)
Sequence (P33261 whole entry, looked up): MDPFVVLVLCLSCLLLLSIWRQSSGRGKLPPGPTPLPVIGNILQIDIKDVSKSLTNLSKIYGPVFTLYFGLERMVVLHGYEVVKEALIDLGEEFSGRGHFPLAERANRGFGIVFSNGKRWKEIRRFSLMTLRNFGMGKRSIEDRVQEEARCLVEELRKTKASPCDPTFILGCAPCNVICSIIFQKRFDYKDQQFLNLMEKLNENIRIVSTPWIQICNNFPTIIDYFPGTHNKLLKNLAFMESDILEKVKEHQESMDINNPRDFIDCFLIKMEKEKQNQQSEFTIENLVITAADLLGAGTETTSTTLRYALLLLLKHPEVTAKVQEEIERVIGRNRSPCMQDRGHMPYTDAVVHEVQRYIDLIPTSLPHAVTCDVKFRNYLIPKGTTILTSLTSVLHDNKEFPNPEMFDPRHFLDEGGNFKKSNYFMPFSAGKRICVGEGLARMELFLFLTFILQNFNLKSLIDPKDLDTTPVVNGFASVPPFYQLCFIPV
assay.comment: Cytochrome P450 Family 2 Subfamily C Member 19 (CYP2C19) small molecule antagonists: luciferase reporter qHTS assay (AID 1671197); further: nearly all actives have a fitted effect of over 65% in size
test.context: P450-Glo CYP2C19 enzyme, luciferin luminescence, 1 h; series mostly up to 115 µM
Records with an inconclusive call do not appear. The source made the active and inactive calls. The call rests on the fitted dose curve; in most records, active means well fitted inhibition curve with a large enough effect in the repeat runs; inconclusive means weak or mixed curves; inactive means no such curve, though single readings can be large or run the other way.
Outcome field: choose from active, inactive

Query string: Please let me know the test result on file for O=C1c2ccccc2C(=O)C1c1ccc2ccccc2n1 .
Result string: active

Query string: Any idea what this test logged for CCCCOc1ccc(N)cc1 ?
Result string: active

Query string: Any idea what this test logged for c1ccc(CCNc2nc(-c3ccccc3)cs2)cc1 ?
Result string: active

Query string: Field: outcome | Entry: CC(C)C[C@H](NC(=O)[C@H](Cc1ccccc1)NC(=O)c1cnccn1)B(O)O
Result string: active

Query string: Hi team, can someone confirm the assay call for C[C@H](N)C(=O)N[C@@H](C)C(=O)NC1[C@H]2CN(c3nc4c(cc3F)c(=O)c(C(=O)O)cn4-c3ccc(F)cc3F)C[C@@H]12 (stereo not given in full) ?
Result string: inactive
